Measured fold change of affinity values are reported for all entries that follow.
Target: T1, Human CD3eg linker (human)
T1 construct: Single-chain construct; also called recombinant human CD3
T1 chain: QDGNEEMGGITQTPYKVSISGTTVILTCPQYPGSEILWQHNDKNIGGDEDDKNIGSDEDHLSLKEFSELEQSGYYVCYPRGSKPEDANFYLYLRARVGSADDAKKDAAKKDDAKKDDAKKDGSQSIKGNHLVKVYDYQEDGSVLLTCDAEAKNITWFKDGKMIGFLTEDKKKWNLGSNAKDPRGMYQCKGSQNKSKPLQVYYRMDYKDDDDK
Assay: SPR; fold vs parent H183/L072
Enter your answer as a number in fold; do not include the unit.

Would you please look over these solved cases?
H183/L072 VL Q90D (antibody, name in Kabat numbering, V domains shown) VH: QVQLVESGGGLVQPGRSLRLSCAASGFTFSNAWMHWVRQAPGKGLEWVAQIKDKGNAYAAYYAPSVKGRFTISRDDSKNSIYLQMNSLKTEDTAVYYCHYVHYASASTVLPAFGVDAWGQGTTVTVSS VL: DIVMTQSPLSLPVTPGEPASISCQASQELVHMNRNTYLHWYQQKPGQAPRLLIYKVSNRFPGVPDRFSGSGSGTDFTLKISRVEAEDVGVYYCADGTSVPFTFGQGTKLEIK; 0
H183/L072 VL F55E (antibody, name in Kabat numbering, V domains shown) VH: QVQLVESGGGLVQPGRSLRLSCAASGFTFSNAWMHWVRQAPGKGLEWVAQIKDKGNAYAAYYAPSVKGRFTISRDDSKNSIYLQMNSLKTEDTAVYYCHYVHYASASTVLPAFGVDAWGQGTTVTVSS VL: DIVMTQSPLSLPVTPGEPASISCQASQELVHMNRNTYLHWYQQKPGQAPRLLIYKVSNREPGVPDRFSGSGSGTDFTLKISRVEAEDVGVYYCAQGTSVPFTFGQGTKLEIK; 3.4

Query: // query fold change of affinity value for entry H183/L072 VL A25N (antibody, name in Kabat numbering, V domains shown) VH: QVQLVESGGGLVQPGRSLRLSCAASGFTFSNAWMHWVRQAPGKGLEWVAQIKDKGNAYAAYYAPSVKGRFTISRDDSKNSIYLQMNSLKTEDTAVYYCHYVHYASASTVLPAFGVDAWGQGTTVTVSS VL: DIVMTQSPLSLPVTPGEPASISCQNSQELVHMNRNTYLHWYQQKPGQAPRLLIYKVSNRFPGVPDRFSGSGSGTDFTLKISRVEAEDVGVYYCAQGTSVPFTFGQGTKLEIK
Result: 0.5
